biological target: CDK7/cyclinH/MAT1 trimeric complex (Homo sapiens, UniProt P50613); experiment: In vitro CDK7 assay, potency of irreversible covalent inhibitors (kinact/KI), coupled PK/LDH ADP readout at 340 nm; details: read-out: CDK7 (20 nM enz.) (kinact/KI, M^−1*s^−1), 20 nM enzyme
Sequence (P50613 whole entry): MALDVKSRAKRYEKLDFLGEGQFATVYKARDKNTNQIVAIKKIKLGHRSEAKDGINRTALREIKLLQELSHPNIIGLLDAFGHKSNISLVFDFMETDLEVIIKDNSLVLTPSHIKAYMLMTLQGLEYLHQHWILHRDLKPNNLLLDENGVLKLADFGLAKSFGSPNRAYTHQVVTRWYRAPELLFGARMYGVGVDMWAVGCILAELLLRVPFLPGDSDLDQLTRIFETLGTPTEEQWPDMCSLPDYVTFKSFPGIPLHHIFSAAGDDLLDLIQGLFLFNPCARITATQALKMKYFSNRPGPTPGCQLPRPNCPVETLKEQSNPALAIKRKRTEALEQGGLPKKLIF
Sequence (P51946 whole entry partner): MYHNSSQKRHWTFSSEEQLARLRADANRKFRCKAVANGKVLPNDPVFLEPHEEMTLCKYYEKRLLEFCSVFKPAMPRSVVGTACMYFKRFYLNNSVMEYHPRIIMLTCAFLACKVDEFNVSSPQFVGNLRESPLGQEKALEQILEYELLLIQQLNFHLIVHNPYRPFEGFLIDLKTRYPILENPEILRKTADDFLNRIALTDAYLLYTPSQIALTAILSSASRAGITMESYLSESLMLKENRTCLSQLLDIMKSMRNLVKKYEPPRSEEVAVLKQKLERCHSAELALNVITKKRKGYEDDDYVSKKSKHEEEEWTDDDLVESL
Sequence (P51948 whole entry partner): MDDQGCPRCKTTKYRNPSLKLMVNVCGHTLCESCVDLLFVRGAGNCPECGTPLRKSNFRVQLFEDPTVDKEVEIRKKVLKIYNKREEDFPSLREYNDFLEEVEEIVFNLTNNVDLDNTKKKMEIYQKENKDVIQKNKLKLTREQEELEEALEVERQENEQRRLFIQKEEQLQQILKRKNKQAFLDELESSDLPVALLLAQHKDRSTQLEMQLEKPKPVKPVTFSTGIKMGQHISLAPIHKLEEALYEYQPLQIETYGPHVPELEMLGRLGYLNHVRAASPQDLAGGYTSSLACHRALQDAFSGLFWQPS
Experimental Endpoint: kinact/KI (M⁻¹ s⁻¹)
Record the value in M⁻¹ s⁻¹, omitting the unit from your answer.

Answered cases to consult:
Compound | Target Or Test System | kinact/KI, M⁻¹ s⁻¹
C=CC(=O)N1CC(N2CCC(c3ccc4c(c3)Nc3nccc(C5CCOCC5)c3[C@H](C)O4)CC2)C1 (single isomer, unassigned) [Compound 98] | CDK7/cyclinH/MAT1 trimeric complex (Homo sapiens, UniProt P50613) | 144
CC#CC(=O)N1CC(N2CC[C@@H](c3cc4c(c(C)n3)O[C@H](C)c3c(N5CCOCC5)ccnc3N4)N(C)CC2)C1 (single isomer, unassigned) | CDK7/cyclinH/MAT1 trimeric complex (Homo sapiens, UniProt P50613) | 8.74
C=CC(=O)N1CC(N2CC[C@@H](c3cc(C)c4c(c3)Nc3nccc(C5CCOCC5)c3CO4)N(C)CC2)C1 (single isomer, unassigned) | CDK7/cyclinH/MAT1 trimeric complex (Homo sapiens, UniProt P50613) | 811
C=CC(=O)N1CC(N2CC[C@H](c3cc(C)c4c(c3)Nc3nccc(C5CCOCC5)c3CO4)N(C)CC2)C1 (single isomer, unassigned) | CDK7/cyclinH/MAT1 trimeric complex (Homo sapiens, UniProt P50613) | 1380
C=CC(=O)N1CC[C@@H](N2CCC(c3cc4c(c(C)n3)OCc3c(N5CCOCC5)ccnc3N4)CC2)C1 (single isomer, unassigned) [Compound 282] | CDK7/cyclinH/MAT1 trimeric complex (Homo sapiens, UniProt P50613) | 1260
C=CC(=O)N1CCC(N2CC(c3cc4c(c(C)n3)O[C@H](C)c3c(C5CCOCC5)ccnc3N4)C2)CC1 (single isomer, unassigned) | CDK7/cyclinH/MAT1 trimeric complex (Homo sapiens, UniProt P50613) | 848

Lab note: C=CC(=O)N1CC(N2CCC(c3cc4c(c(C)n3)OCc3c(C5CCOCC5)ccnc3N4)CC2)C1 gave kinact/KI of 287

get_value(item= C=CC(=O)N1CC[C@H](N2CC(c3cc(C#N)c4c(c3)Nc3nccc(N5CCOCC5)c3[C@H](C)O4)C2)C1 (single isomer, unassigned) , readout=kinact/KI) returns 14.4

----------
molecular target: CDK7/cyclinH/MAT1 trimeric complex (Homo sapiens, UniProt P50613); assay: In vitro CDK7 assay, potency of irreversible covalent inhibitors (kinact/KI), coupled PK/LDH ADP readout at 340 nm; settings: CDK7 (20 nM enz.) (KI, μM), 20 nM enzyme
Reported Ki is given for each of the following compounds.
# unit: µM | format: bare number

Recorded Ki, per entry:
Compound | Ki, µM
C=CC(=O)N1CCC(N2CCC(c3cc(C)c4c(c3)Nc3nccc(-c5cnn(C)c5)c3CO4)CC2)CC1 [Compound 105] | 0.0256
C=CC(=O)N1CC[C@H](N2CC(c3cc(C)c4c(c3)Nc3nccc(N5CCOCC5)c3CO4)C2)C1 (single isomer, unassigned) [Compound 329] | 0.0243
CC#CC(=O)N1CCC(N2CC[C@@H](c3cc4c(c(C)n3)OCc3c(N5CCOCC5)ccnc3N4)C2)CC1 (single isomer, unassigned) [Compound 433] | 0.185
C=CC(=O)N1CC(N2CCC(c3cc4c(c(C(N)=O)c3)OCc3c(C5CCOCC5)ccnc3N4)CC2)C1 [Compound 158] | 0.204

Consider C=CC(=O)N1CC(N2CCC(O)(c3cc(C)c4c(c3)Nc3nccc(C5CCOCC5)c3CO4)CC2)C1 [Compound 159] . Its measured Ki is 0.144

----------
molecular target: CDK7/cyclinH/MAT1 trimeric complex (Homo sapiens); assay: In vitro CDK7 assay, potency of irreversible covalent inhibitors (kinact/KI), coupled PK/LDH ADP readout at 340 nm; settings: read-out: CDK7 (20 nM enz.) (kinact, s^−1), 20 nM enzyme
Experimental Endpoint: kinact

Molecule | Meas Value
C=CC(=O)N1CC(N2CCCN(C)[C@@H](c3cc(C)c4c(c3)Nc3nccc(C5CCOCC5)c3CO4)C2)C1 (single isomer, unassigned) [Compound 259] | 3.66e-05 s⁻¹

// molecule C=CC(=O)N1CC[C@@H](N2CC(c3cc(C)c4c(c3)Nc3nccc(-c5cnn(C)c5)c3CO4)C2)[C@H](F)C1 (mixture of isomers) [Compound 203] , assay CDK7/cyclinH/MAT1 trimeric complex (Homo sapiens), kinact value: 4.19e-05 s⁻¹

Record C=CC(=O)N1CC(N2CCC(c3ccc4c(c3)Nc3nccc(N5CCOCC5)c3[C@H](C)O4)CC2)C1 (single isomer, unassigned) [Compound 92] / CDK7/cyclinH/MAT1 trimeric complex (Homo sapiens), kinact recorded as 4.72e-05 s⁻¹

----------
target: CDK7/cyclinH/MAT1 trimeric complex (Homo sapiens, UniProt P50613); assay: In vitro CDK7 assay, potency of irreversible covalent inhibitors (kinact/KI), coupled PK/LDH ADP readout at 340 nm; conditions: read-out: CDK7 (20 nM enz.) (kinact, s^−1), 20 nM enzyme
Overview of reported kinact across a group of compounds:
Reply with just the number (in s⁻¹).

Summary for this compound, C=CC(=O)N1CC(N2CCC(c3cc4c(c(C)n3)O[C@@H](C)c3c(C5CCOCC5)ccnc3N4)CC2)C1 (single isomer, unassigned) [Compound 415] : kinact is 7.43e-05

Reported kinact of C=CC(=O)N1CC[C@H](N2CC(c3cc4c(c(C)n3)OCc3c(N5CCOCC5)ccnc3N4)C2)C1 (single isomer, unassigned) : 5.34e-05

Reported kinact of C=CC(=O)N1CC[C@@H](N2CC(c3cc(C)c4c(c3)Nc3nccc(C5CCOCC5)c3CO4)C2)C1 (single isomer, unassigned) : 4.58e-05

Summary for this compound, C=CC(=O)N1CC(N2CC[C@@H](c3cc4c(c(C)n3)O[C@@H](C)c3c(N5CCOCC5)ccnc3N4)C2)C1 (single isomer, unassigned) [Compound 392] : kinact is 5.4e-05

----------
biological target: CDK7/cyclinH/MAT1 trimeric complex (Homo sapiens); test: In vitro CDK7 assay, potency of irreversible covalent inhibitors (kinact/KI), coupled PK/LDH ADP readout at 340 nm; details: read-out: CDK7 (20 nM enz.) (kinact/KI, M^−1*s^−1), 20 nM enzyme
Experimental Endpoint: log10 kinact/KI (log10 of the value in M⁻¹ s⁻¹)
Short version: log10 scale, kinact/KI, M⁻¹ s⁻¹.

Molecule | log10 kinact/KI
C=CC(=O)N1CC[C@@H](N2CC(c3cc4c(c(C)n3)O[C@H](C)c3c(C5CCOCC5)ccnc3N4)C2)C1 (single isomer, unassigned) [Compound 413] | 3.12
C=CC(=O)N1CC(N2CC(c3cc(F)c4c(c3)Nc3nccc(N5CCOCC5)c3CO4)C2)C1 [Compound 166] | 3.29

Recorded log10 kinact/KI (molecule C=CC(=O)N1CC[C@@H](N2CC(c3cc4c(c(C5CC5)n3)O[C@H](C)c3c(N5CCOCC5)ccnc3N4)C2)C1 (single isomer, unassigned) [Compound 469] ): 1.48

Item: C=CC(=O)N1CC(N2CCC(c3cc(C)c4c(c3)Nc3ncc(C#N)c(N5CCOCC5)c3CO4)CC2)C1 [Compound 156] | log10 kinact/KI: 2.47

Short answer for C=CC(=O)N1CC(N2CC[C@@H](c3ccc4c(c3)Nc3nccc(N5CCOCC5)c3CO4)[C@H](O)C2)C1 (racemic) [Compound 216] : log10 kinact/KI was 2.15

Per the records, this molecule ( Cc1nc(C2CCN(C3CN(C(=O)/C=C/CN(C)C)C3)CC2)cc2c1OCc1c(-c3cnn(C)c3)ccnc1N2 [Compound 540] ) has log10 kinact/KI equal to 3.36

The reported log10 kinact/KI of the molecule CC#CC(=O)N1CCC(N2CC(c3cc4c(c(C#N)n3)O[C@@H](C)c3c(C5CCOCC5)ccnc3N4)C2)CC1 (single isomer, unassigned) [Compound 518] was 3.64

log10 kinact/KI reported for this molecule Cc1nc(C2CCN([C@@H]3CCN(C(=O)/C=C/C(=O)O)C3)CC2)cc2c1OCc1c(-c3cnn(C)c3)ccnc1N2 (single isomer, unassigned) [Compound 330] : 1.28

Query CC#CC(=O)N1CC(N2CCC(c3cc4c(c(C)n3)O[C@@H](C)c3c(N5CCOCC5)ccnc3N4)CC2)C1 (single isomer, unassigned) [Compound 344] yields log10 kinact/KI of 0.50

# log10 kinact/KI (molecule: C=CC(=O)N1CC2(CC(c3cc(F)c4c(c3)Nc3nccc(N5CCOCC5)c3CO4)C2)C1 [Compound 162] ) is 2.51

Entry C=CC(=O)N1CCC(N2CC(c3cc4c(c(C)n3)OCc3c(-c5cnn(C)c5)ccnc3N4)C2)CC1 [Compound 170] — recorded log10 kinact/KI = 2.47

log10 kinact/KI reading for C=CC(=O)N1CC[C@H](N2CC(c3cc(C)c4c(c3)Nc3nccc(N5CCOCC5)c3[C@H](C)O4)C2)C1 (single isomer, unassigned) [Compound 231] : 1.58

Input C=CC(=O)N1CCC(N2CC(c3cc(F)c4c(c3)Nc3nccc(C5CCOCC5)c3[C@@H](C)O4)C2)CC1 (single isomer, unassigned) [Compound 153] . Output log10 kinact/KI: 3.11

Entry under test: CC#CC(=O)N1CC(N2CC[C@@H](c3cc4c(c(C)n3)O[C@@H](C)c3c(N5CCOCC5)ccnc3N4)N(C)CC2)C1 (single isomer, unassigned) [Compound 521] . Its log10 kinact/KI was 1.20

Recorded result, C=CC(=O)N1CC(N2CC(c3cc4c(cn3)O[C@H](C)c3c(-c5cnn(C)c5)ccnc3N4)C2)C1 (single isomer, unassigned) [Compound 295] , log10 kinact/KI: 2.90

log10 kinact/KI recorded for this molecule, C=CC(=O)N1CCC(N2CCC(c3cc(C)c4c(c3)Nc3nccc(-c5cnn(C)c5)c3CO4)CC2)CC1 [Compound 105] , is 3.35

molecule C=CC(=O)N1CCC(N2CC(c3cc(F)c4c(c3)Nc3nccc(N5CCOCC5)c3CO4)C2)CC1 [Compound 136] , log10 kinact/KI observed: 2.87

The reported measurements were obtained from patent US20240254138A1.
